Values were extracted from patent US20250333515A1.

molecular target: biotinylated recombinant human CLL-1 extracellular domain protein, isoform with lysine at amino acid position 244 (human) (UniProt Q5QGZ9); assay: EC50 table, CLL-1 K244; reciprocals of the ELISA bars of FIG. 8B
Sequence (Q5QGZ9 65-265): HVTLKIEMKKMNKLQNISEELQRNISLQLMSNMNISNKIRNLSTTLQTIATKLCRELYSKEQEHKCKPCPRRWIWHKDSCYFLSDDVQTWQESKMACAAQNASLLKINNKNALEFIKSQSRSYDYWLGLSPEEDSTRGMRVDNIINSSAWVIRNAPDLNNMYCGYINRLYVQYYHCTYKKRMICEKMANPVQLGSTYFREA
For each record, write down the corresponding pEC50.
// pEC50 here means minus log10 of the molar concentration (mol/L)

# pEC50 (binder: Anti-CLL-1 Binder Clone 102 (VHH) VHH: QVQLVQSGGGLVQPGGSLRLSCAASYFSFADYEMSWVRQAPGQRLEWVAVVSKDGNELYYADSVKGRFTISRDNSKNTLYLQMNTLRAEDTAVYYCVKDPYDFWSGYYSNWGQGTLVTVSS ) is 8.59

# pEC50 (binder: Anti-CLL-1 Binder Clone 101 (VHH) VHH: QVQLVQSGGGLVQPGGSLRLSCAASDFDFADDSMDWVRQAPGKALEWIGSIFYSGTTYYNPSLKSRVTISRDNSKNTLYLQMNTLRAEDTAVYYCTRSALYGDAAFDVWAQGTMVTVSS ) is 8.32

# pEC50 (binder: Anti-CLL-1 Binder Clone 99 (VHH) VHH: QVQLVQSGGGLVQPGGSLRLSCAASAFDFYSYEMSWVRQAPGKGLEWVSYIGPIGTDIGYADSVKGRFTISRDNSKNTLYLQMNTLRAEDTAMYYCAKDPYYDSTGLTSYWGQGTLVTVSS ) is 7.03

# pEC50 (binder: Anti-CLL-1 Binder Clone 97 (VHH) VHH: QVQLVQSGGGLVQPGGSLRLSCAASDFDFDDDSMDWVRQAPGKGLEWIGSVLHDGATYYNPSLKSRVTISRDNSKNTLYLQMNTLRAEDTATYYCTRSALYGDAAFDVWAQGTMVTVSS ) is 8.89
